All figures here come from patent US20250228855A1.

Target: HsProRS (Homo sapiens, UniProt P07814)
Sequence (P07814 1007-1512 limits assumed): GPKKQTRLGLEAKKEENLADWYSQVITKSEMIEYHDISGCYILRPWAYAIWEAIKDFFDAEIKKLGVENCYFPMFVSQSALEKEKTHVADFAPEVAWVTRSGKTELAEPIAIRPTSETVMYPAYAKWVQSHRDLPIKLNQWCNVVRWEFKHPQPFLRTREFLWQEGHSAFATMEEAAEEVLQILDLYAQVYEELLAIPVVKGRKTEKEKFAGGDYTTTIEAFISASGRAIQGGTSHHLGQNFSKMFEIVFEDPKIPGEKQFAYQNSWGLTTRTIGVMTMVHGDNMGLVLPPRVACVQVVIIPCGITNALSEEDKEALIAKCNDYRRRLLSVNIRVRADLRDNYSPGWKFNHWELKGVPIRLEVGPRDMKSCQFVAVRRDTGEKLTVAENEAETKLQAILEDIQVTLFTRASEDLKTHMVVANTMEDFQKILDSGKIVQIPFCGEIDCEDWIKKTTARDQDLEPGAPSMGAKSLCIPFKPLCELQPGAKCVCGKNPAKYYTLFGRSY
Assay: TR-FRET ligand displacement assay with tracer MAT379, HsProRS
Type: binding
Conditions: absence of proline; read-out: KD for HsProRS
result_type: pKd
A value of pKd is the negative decimal logarithm of a concentration given in moles per litre.

// recorded pKd for "O=C(NS(=O)(=O)N1CCN(C(=O)Nc2nccnc2C(=O)NC2Cc3ccccc3C2)CC1)OC[C@H]1CCCN1" : 6.98

compound "O=C(NS(=O)(=O)NC1CCN(C(=O)Nc2nccnc2C(=O)NC2Cc3ccccc3C2)CC1)OCCn1cnc2ccccc2c1=O" , pKd observed: 6.80

Record "O=C(CCCCCNC(=O)Nc1ccccc1)NC1CCN(C(=O)Nc2nccnc2C(=O)NC2Cc3ccccc3C2)CC1" . Reported pKd: 6.77

Note to self: pKd recorded for "O=C(NS(=O)(=O)NCC1CCN(C(=O)Nc2nccnc2C(=O)NC2Cc3ccccc3C2)CC1)OCCn1cnc2ccccc2c1=O" was 6.56

Query "O=C(CCCCCNC(=S)NC1CCCCC1)NCC1CCN(C(=O)Nc2nccnc2C(=O)NC2Cc3ccccc3C2)CC1" yields pKd of 5.56

---

Provide the reported IC50 of each item.
Tested on: P. falciparum Dd2-2D4
Assay: P. falciparum asexual blood stage growth assay, wild-type Dd2-2D4
Settings: Plasmodium falciparum, DD2, read-out: IC50 for Dd2-2D4
State just the number; it will be interpreted in µM.

According to the records, this compound "Nc1ncnc2c1ncn2[C@@H]1O[C@H](CNS(=O)(=O)NC(=O)OCCn2cnc3ccccc3c2=O)[C@@H](O)[C@H]1O" displays IC50 of 0.0739

Field IC50 (entry "O=C(NS(=O)(=O)NCC1CCN(C(=O)Nc2nccnc2C(=O)NC2Cc3ccccc3C2)CC1)OCCn1cnc2ccccc2c1=O" ) reads 4.56

// IC50 lookup, compound = "O=C(NS(=O)(=O)NC1CCN(C(=O)Nc2nccnc2C(=O)NC2Cc3ccccc3C2)CC1)OCCn1cnc2ccccc2c1=O" , result: 4.83

---

Target: PfcProRS (Plasmodium falciparum, UniProt Q8I5R7)
Sequence (Q8I5R7 whole entry): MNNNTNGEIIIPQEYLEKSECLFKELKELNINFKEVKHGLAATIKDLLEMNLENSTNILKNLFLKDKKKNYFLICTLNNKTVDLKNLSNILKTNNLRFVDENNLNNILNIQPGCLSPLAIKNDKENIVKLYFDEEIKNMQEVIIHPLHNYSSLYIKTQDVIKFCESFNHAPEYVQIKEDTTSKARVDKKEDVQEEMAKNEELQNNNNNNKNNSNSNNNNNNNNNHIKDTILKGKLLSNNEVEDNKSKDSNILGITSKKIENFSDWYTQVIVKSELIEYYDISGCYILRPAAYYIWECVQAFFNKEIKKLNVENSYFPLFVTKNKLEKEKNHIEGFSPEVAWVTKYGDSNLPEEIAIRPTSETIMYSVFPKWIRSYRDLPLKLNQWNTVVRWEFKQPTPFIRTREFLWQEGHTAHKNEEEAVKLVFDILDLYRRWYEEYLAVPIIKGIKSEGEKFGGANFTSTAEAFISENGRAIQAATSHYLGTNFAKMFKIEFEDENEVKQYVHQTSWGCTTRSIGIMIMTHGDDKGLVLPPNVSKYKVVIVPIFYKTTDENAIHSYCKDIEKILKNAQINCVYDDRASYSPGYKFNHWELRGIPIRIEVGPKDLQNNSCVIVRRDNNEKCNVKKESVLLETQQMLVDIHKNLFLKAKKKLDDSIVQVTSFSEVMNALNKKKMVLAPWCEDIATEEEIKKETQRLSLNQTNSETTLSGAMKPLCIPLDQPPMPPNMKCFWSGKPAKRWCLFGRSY
Assay: TR-FRET ligand displacement assay with tracer MAT379, PfcProRS
Format: binding
Settings: absence of proline; read-out: KD for PfcProRS
Where a name gives a salt, the structure may show the parent alone.
result_type: Kd (µM)
# value in µM; strip the unit string

Data point: O=C(NS(=O)(=O)NC1CCN(C(=O)Nc2nccnc2C(=O)NC2Cc3ccccc3C2)CC1)OCCn1cnc2ccccc2c1=O [MAT513] ; Kd = 0.0203

Kd reading for O=C(NS(=O)(=O)N1CCN(C(=O)Nc2nccnc2C(=O)NC2Cc3ccccc3C2)CC1)OC[C@@H]1CCCN1 [MAT457, hydrochloride] : 0.152

Quick note, Kd for O=C(NS(=O)(=O)N1CCN(C(=O)Nc2nccnc2C(=O)NC2Cc3ccccc3C2)CC1)OC[C@H]1CCCN1 [MAT459] landed at 0.736

---

Record form. Attribute: Kd. Fill in for each entry.
Molecular target: HsProRS (Homo sapiens, UniProt P07814)
Assay: TR-FRET ligand displacement assay with tracer MAT379, HsProRS
Type: binding
Settings: HsProRS (KD [nM]) −
Structures can show the parent of a compound that is named as a salt.

According to the records, this molecule NCC1CCN(C(=O)Nc2nccnc2C(=O)NC2Cc3ccccc3C2)CC1 [Compound 10, dihydrochloride] displays Kd of > 8720 nM

Lookup result for NC1CCN(C(=O)Nc2nccnc2C(=O)NC2Cc3ccccc3C2)CC1 [Compound 8, dihydrochloride] ; measured Kd: > 8720 nM

Item: O=C(NC1Cc2ccccc2C1)c1nccnc1NC(=O)N1CCNCC1 [Compound 14, dihydrochloride] | Kd: > 8720 nM
